molecular target: PI3K (p110α (E545K)/p85α) (Homo sapiens (Human), UniProt P42336, E545K); test: Lipid kinase selectivity panel (Reaction Biology); format: biochemical; conditions: 1 μM compound, single dose duplicates, 10 μM ATP; read-out: Percent inhibition relative to DMSO control, PI3K (p110α (E545K)/p85α)
Sequence (P42336 whole entry E545K): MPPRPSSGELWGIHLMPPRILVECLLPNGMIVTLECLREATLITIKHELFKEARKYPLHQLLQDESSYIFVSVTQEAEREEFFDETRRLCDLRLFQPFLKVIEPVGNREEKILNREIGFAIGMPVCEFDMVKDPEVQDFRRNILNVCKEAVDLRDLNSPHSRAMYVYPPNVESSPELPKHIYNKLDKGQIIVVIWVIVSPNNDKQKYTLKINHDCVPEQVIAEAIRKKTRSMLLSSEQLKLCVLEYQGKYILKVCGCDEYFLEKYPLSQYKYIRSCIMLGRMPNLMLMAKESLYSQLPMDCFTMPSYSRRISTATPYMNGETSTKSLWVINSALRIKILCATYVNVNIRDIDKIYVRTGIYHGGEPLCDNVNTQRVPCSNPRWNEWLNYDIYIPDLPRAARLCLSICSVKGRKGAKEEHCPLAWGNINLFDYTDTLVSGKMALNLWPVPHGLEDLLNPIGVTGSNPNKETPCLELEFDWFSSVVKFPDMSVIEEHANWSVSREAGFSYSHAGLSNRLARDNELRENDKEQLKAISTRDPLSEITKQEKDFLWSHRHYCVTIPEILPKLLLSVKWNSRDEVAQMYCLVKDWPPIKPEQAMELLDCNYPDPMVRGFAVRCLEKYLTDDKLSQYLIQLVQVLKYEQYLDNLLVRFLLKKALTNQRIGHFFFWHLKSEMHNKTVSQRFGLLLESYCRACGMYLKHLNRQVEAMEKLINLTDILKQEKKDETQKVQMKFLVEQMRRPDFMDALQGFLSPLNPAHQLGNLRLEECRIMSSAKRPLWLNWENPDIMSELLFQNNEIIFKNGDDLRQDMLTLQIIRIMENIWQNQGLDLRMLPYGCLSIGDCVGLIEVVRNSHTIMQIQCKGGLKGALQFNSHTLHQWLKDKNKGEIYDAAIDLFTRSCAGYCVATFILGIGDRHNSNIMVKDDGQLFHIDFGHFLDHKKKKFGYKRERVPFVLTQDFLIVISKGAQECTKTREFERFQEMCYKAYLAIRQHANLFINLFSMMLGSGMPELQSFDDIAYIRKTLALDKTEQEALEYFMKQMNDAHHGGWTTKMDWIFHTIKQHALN
Sequence (P27986 whole entry partner): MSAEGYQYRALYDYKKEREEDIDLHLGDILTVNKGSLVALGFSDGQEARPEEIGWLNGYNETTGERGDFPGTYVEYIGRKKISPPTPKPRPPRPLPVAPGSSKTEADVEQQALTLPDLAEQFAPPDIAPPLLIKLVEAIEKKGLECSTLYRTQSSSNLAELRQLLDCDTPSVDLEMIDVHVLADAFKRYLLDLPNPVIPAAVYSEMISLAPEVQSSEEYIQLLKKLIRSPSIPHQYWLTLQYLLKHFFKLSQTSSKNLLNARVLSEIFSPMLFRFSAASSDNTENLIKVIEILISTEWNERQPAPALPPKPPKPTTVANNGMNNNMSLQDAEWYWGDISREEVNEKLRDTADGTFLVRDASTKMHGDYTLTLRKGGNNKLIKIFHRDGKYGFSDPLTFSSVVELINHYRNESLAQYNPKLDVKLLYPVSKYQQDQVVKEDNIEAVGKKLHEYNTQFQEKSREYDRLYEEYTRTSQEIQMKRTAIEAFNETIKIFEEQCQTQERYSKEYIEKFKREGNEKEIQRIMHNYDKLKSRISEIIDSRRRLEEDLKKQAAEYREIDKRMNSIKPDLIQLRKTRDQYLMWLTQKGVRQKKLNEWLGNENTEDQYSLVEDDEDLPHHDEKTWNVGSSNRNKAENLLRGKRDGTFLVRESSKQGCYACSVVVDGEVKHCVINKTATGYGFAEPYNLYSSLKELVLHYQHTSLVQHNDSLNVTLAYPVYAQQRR
reported_endpoint: inhibition at 1 µM (%)

A: COC(=O)Nc1cc(-c2cc(N3CCCC[C@@H]3C)[nH]c(=O)c2)c(C)cn1 [Example 20]
B: Cc1nccc(Nc2cc(-c3cc(-c4cccnc4C(F)(F)F)[nH]c(=O)c3)c(C)cn2)n1 [Example 38]
C: CNCC(=O)Nc1cc(-c2cc(N3CCCC[C@@H]3C(F)(F)F)[nH]c(=O)c2)c(C)cn1 [Example 24]
Rank entries according to their inhibition at 1 µM, from the largest number down. Give the order by naming the labels one after another as requested. B, C, A
(B: 24%, C: -2%, A: -3%)

The origin of these recorded values is patent US20250236609A1.
